This collection of values is drawn from paper PMC5700166.

Entries annotated with measured binding signal
Target: GST-Nv-NF-kB (Cys allele) (Nematostella vectensis, UniProt E5G601 2-411)
Sequence: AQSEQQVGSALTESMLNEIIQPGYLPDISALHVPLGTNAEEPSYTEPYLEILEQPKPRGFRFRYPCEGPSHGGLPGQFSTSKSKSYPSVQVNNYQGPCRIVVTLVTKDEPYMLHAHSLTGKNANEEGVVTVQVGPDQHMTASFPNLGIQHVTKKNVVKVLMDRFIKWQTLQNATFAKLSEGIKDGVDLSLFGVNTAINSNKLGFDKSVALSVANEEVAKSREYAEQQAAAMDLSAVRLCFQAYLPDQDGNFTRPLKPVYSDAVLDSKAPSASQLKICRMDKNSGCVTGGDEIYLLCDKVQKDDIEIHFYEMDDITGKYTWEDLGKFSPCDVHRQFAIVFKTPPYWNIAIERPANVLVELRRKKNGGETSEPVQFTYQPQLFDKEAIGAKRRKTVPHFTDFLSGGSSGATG
Test: protein-binding microarray (PBM); PBM: ~300 nM protein, 6 mM HEPES pH 7.8, 80 mM KCl, 0.5 mM EDTA, 0.5 mM EGTA, 6% glycerol, 35 ng/ul poly-dIdC, 1% milk, 1 h, room temperature; Ap Aiptasia and Nv Nematostella (sea anemones) / Co Capsaspora / Aq Amphimedon (sponge) / Dm Drosophila / Hu human; RHD is the Rel homology domain; high values mean tight binding
Details: dsDNA, one strand shown

Polymer sequence	binding signal (z-score)
CCGATTAACATCAGGAAAAGTCCTGATGTTAATCGGGTCTTGATTCGCTTGACGCTGCTG	1.25
CCGATTAACATCACCCCTCCCCCTGATGTTAATCGGGTCTTGATTCGCTTGACGCTGCTG	3.91
CCGATTAACATCAAATTTCCCATTGATGTTAATCGGGTCTTGATTCGCTTGACGCTGCTG	4.83
CCGATTAACATCAGAATAACCCCTGATGTTAATCGGGTCTTGATTCGCTTGACGCTGCTG	3.87
CCGATTAACATCAGAAATTACCCTGATGTTAATCGGGTCTTGATTCGCTTGACGCTGCTG	6.24
CCGATTAACATCACATTTTCCCCTGATGTTAATCGGGTCTTGATTCGCTTGACGCTGCTG	8.07
CCGATTAACATCAGGGGGAGCACTGATGTTAATCGGGTCTTGATTCGCTTGACGCTGCTG	3.91
CCGATTAACATCACTTTACCCCCTGATGTTAATCGGGTCTTGATTCGCTTGACGCTGCTG	2.61
CCGATTAACATCAGGGTCTTATATGATGTTAATCGGGTCTTGATTCGCTTGACGCTGCTG	1.26
